System: HL-60(TB) leukemia
assay-protocol: NCI tumour cell line growth inhibition, 48 h
Label scheme for TGI: lower than 40 µM is false (0), 40 µM and above is true (1).

[[record]]
molecule = "CC(=O)OCc1cn(S(=O)(=O)c2ccc(C)cc2)cn1"
answer_label = "true (1)"

[[record]]
molecule = "O=C(/C=C/c1cccnc1)c1ccccc1O"
answer_label = "true (1)"

[[record]]
molecule = "CN1CCCN(C(c2ccccc2)c2ccc(Br)cc2)CC1 (stereo not given)"
answer_label = "false (0)"

[[record]]
molecule = "O=C1OC(c2ccccc2)N/C1=C\\c1ccc2c(c1)OCO2 (stereo not given)"
answer_label = "false (0)"

[[record]]
molecule = "COc1cc([C@@H]2c3cc4c(c(O)c3C[C@H]3COC(=O)[C@@H]32)OCO4)cc(OC)c1O"
answer_label = "false (0)"


Prompt: Has CC1=C(C(=O)Nc2ccccc2C)C(c2ccc(C3C(C(=O)Nc4ccccc4C)=CNC=C3C(=O)Nc3ccccc3C)cc2)C(C(=O)Nc2ccccc2C)=C(C)N1 a recorded TGI greater than or equal to 40 µM?
Completion: false (0)

Prompt: Please indicate if the recorded TGI for CC[C@@]1(O)C(=O)OCc2c1cc1n(c2=O)Cc2c-1nc1ccccc1c2/C=N\NC(=O)C(C)N (stereo not given in full) meets or exceeds 40 µM.
Completion: true (1)

Prompt: TGI >= 40 µM for CN(C(=O)c1cccs1)C(=S)N1CCN(c2ccccc2)CC1 ?
Completion: true (1)

Prompt: Exam item: decide whether the reported TGI for CCCCCCCCCCCCP(=O)(O)OCC(N)C(=O)O (stereo not given) is at least 40 µM.
Completion: false (0)

Prompt: Item O=C(N/C(=C\c1ccccc1)C1Nc2ccccc2C(=O)O1)c1ccccc1 (stereo not given) with TGI of 40 µM or above?
Completion: false (0)
